measurement-target: the molecule itself
experiment: AUC
observation-type: Kd (µM)
Give just the numeric value; µM need not be written.

Identify measured Kd associated with His6Flag-Smt3-CC-I fusion of the LI Int coiled-coil domain (345-405) (domain or fragment, Listeria innocua (prophage), UniProt Q928V6 345-405, looked up) EDELDSLNEKLKIEHAKKKRLFDLYINGSYEVSELDSMMNDIDAQINYYEAQIEANEELKK
20.1
